# tested_system: Nonstructural protein 3 (Zika virus)
# Sequence (A0A024AXB9 whole entry): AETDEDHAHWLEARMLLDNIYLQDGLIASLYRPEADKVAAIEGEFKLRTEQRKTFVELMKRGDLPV
# experimental_protocol: Functional biochemical assay to identify treatments for viral infectious disease that targets Zika NS2B-NS3 protease. Utilizing a direct enzyme activity measurement method, reading the fluorescence intensity is used to characterize the relative potency of inhibitors as IC50.
# Set-up: species or system PRVABC59
pIC50: −log10 of the molar value.
measured_property: pIC50

Field: example entries. Status: answers known.
> print(dat)
                               input.smiles                         tested.system  measured.property  result.value
1  NS(=O)(=O)c1ccc(C2CCN(Cc3c[nH]c4ccccc34)CC2)cc1  Nonstructural protein 3 (Zika virus)              pIC50          4.58
2     NCc1cc(Cl)cc(C(=O)Nc2ccc3c(c2)CNC3)c1  Nonstructural protein 3 (Zika virus)              pIC50          6.94
3  c1cc2sccc2c(N2CCN(Cc3ccc4cn[nH]c4c3)CC2)n1  Nonstructural protein 3 (Zika virus)              pIC50        < 4.00
4  C[C@H](CC(=O)O)N(C)C(=O)c1cc(Cl)cc(NC(=O)OCc2ccccc2)c1  Nonstructural protein 3 (Zika virus)              pIC50        < 4.00
5  O=C(O)c1cc2cc(-c3nccc(C(F)F)n3)ccc2[nH]1  Nonstructural protein 3 (Zika virus)              pIC50        < 4.00
6        CC1(NC(=O)c2cccc3c2CC(=O)N3)CCOCC1  Nonstructural protein 3 (Zika virus)              pIC50        < 4.60
7  CN(C)CCNC(=O)[C@H](NC(=O)OCc1ccccc1)c1ccc(OCc2ccccc2)cc1  Nonstructural protein 3 (Zika virus)              pIC50        < 4.00
8  CC(C)CNC(=O)c1cc(Cl)cc2[nH]c(-c3cccc(C#N)c3)nc12  Nonstructural protein 3 (Zika virus)              pIC50        < 4.60
9  CCCCCC(=O)N[C@H](C(=O)NCc1ccc(NC(=N)N)cc1)c1ccc(OCc2ccccc2)cc1  Nonstructural protein 3 (Zika virus)              pIC50        < 4.00

Let's switch to this compound now.
Ask: Read the entry `N#CC1(S(=O)(=O)N2CCC([C@H](NC(=O)OCc3ccccc3)C(=O)Nc3cccc(CN)c3)CC2)CCC1` and write its reported pIC50.
Reply: 4.01

* * *

# tested_system: Nonstructural protein 3 (Zika virus)
# experimental_protocol: Functional biochemical assay to identify treatments for viral infectious disease that targets Zika NS2B-NS3 protease. Utilizing a direct enzyme activity measurement method, reading the fluorescence intensity is used to characterize the relative potency of inhibitors as IC50.
# Set-up: species or system PRVABC59
Here, each record is paired with measured IC50 data.

Field: example entries. Status: answers known.
> print(dat)
                               input.smiles                         tested.system  measured.property  result.value
1  O=C1OCc2ccc(NC(=O)[C@H]3CNC4(CCCC4)C3)cc21  Nonstructural protein 3 (Zika virus)               IC50       > 25 µM
2  O=C(O)c1cc(Cl)ccc1S(=O)(=O)Nc1ccc(Oc2ccccn2)cc1  Nonstructural protein 3 (Zika virus)               IC50     > 99.5 µM
3  CCNC(=O)Nc1cc(Cl)cc(C(=O)Nc2cccc(-c3nn[nH]n3)c2)c1  Nonstructural protein 3 (Zika virus)               IC50     > 99.5 µM
4     O=C(Nc1ccc2c(c1)CNC2)c1ccnc2[nH]ccc12  Nonstructural protein 3 (Zika virus)               IC50       21.1 µM
5  O=C(Nc1ccc2c(c1)OCO2)c1cc(Cl)cc2[nH]ncc12  Nonstructural protein 3 (Zika virus)               IC50     > 99.5 µM

Ask: Read the entry `c1cc(Cc2noc(CCc3cscn3)n2)no1` and write its reported IC50.
Reply: > 99.5 µM

Ask: Read the entry `CNC(=O)[C@H](Nc1cc(Cl)cc2[nH]ncc12)c1ccc2c(c1)CNC2` and write its reported IC50.
Reply: 3.99 µM

Ask: Read the entry `O=S(=O)(Nc1cccc(-c2nnn[nH]2)c1)c1cc(Cl)cc(-c2ccccc2)c1` and write its reported IC50.
Reply: > 99.5 µM

Ask: Read the entry `CCc1cc(C(=O)Nc2cccc(-c3nnn[nH]3)c2)nn1-c1ccccc1` and write its reported IC50.
Reply: > 99.5 µM

Ask: Read the entry `O=C(Nc1ccc(-c2nnn[nH]2)cc1)c1cc(Cl)cc(C2CC2)c1` and write its reported IC50.
Reply: > 99.5 µM

Ask: Read the entry `Cc1c(C(=O)Nc2ccc3c(c2)C(=O)N(C)C3)cc(C2CC2)n1C` and write its reported IC50.
Reply: > 25 µM

Ask: Read the entry `Cc1cc(C(=O)Nc2cccc(CN)c2)c2nc(C)n(C)c2n1` and write its reported IC50.
Reply: > 99.5 µM

Ask: Read the entry `CCc1ccc(-c2nc3c(C(=O)Nc4ccc5c(c4)CNC5)cc(Cl)cc3[nH]2)cc1` and write its reported IC50.
Reply: 0.163 µM

Ask: Read the entry `O=C(Nc1ccc2c(c1)CNC2)c1ccc2nc(O)sc2c1` and write its reported IC50.
Reply: > 25 µM

Ask: Read the entry `CC(C)(C)OC(=O)NCc1ccc(I)c(NC(=O)c2cc(Cl)cc(NC(=O)OCc3ccccc3)c2)c1` and write its reported IC50.
Reply: > 99.5 µM

Ask: Read the entry `Cc1c(CN)c(C(=O)Nc2cc(-c3cccnc3)ccn2)nn1C` and write its reported IC50.
Reply: > 25 µM

Ask: Read the entry `CCNC(=O)c1cn(CC)c(=O)c(N2CC[C@@H](CO)C2)n1` and write its reported IC50.
Reply: > 99.5 µM

Ask: Read the entry `CCn1c(=O)c(N2CC[C@@H](CN3CCCCC3)C2)nc2ccccc21` and write its reported IC50.
Reply: > 99.5 µM

Ask: Read the entry `COc1cc2c(CN3CCC(c4cscn4)CC3)c[nH]c2cc1Cl` and write its reported IC50.
Reply: 49.6 µM

Ask: Read the entry `COc1cn(-c2cccc(C(F)(F)F)c2)nc1C(=O)Nc1cccc(CN)c1` and write its reported IC50.
Reply: > 99.5 µM

Ask: Read the entry `COCCN1C(=O)CCc2cc(NC(=O)c3cc(C4CC4)n(C)c3C)ccc21` and write its reported IC50.
Reply: > 25 µM

Ask: Read the entry `NCc1cccc(NC(=O)c2cc(Cl)ccc2-n2cncn2)c1` and write its reported IC50.
Reply: 17.7 µM
